# EXPERIMENTAL_DETAILS: Toxicity liver stage against HepG2, at 10uM
# Format: cell-based
# Design: test concentration 10 uM, cell line HepG2-A16-CD81EGFP
# COND: human, HepG2-A16-CD81EGFP cells; read-out: INHIBITION
EXPERIMENTAL_ENDPOINT: cytotoxicity at 10 µM (%)
Supply the numeric figure in %, leaving out any unit text.

For orientation, consider the following solved cases.
CCn1c(-c2ccccc2)nn(CC(=O)NCCc2ccc(C)s2)c1=O : 7.69
Cn1cnc2c1CCN(Cc1ccc(Cl)c3cccnc13)C2 : 10.6
CCOCCC(=O)NC1(c2cccc(Br)c2)CC1 : 7.53

Moving on to the next compound.
Lookup: For the compound Cc1cncc(C(=O)N2CC[C@@]3(C[C@H](NS(C)(=O)=O)CCO3)C2)c1 , what cytotoxicity at 10 µM is on record?
Found: -73.6

###

# EXPERIMENTAL_DETAILS: Toxicity liver stage against HepG2, at 10uM
# Assay type: cell-based
# Set-up: test concentration 10 uM, cell line HepG2-A16-CD81EGFP
# COND: human, HepG2-A16-CD81EGFP cells; read-out: INHIBITION
EXPERIMENTAL_ENDPOINT: cytotoxicity at 10 µM (%)
Answer with a number only, understood to be in %.

Previously resolved entries follow.
CCc1cnc(C)nc1N1CCC(Cc2cccc(C(=O)O)c2)C1 (stereo not drawn) : 2.42
CCc1ccc(CN2CCCCC2c2n[nH]cc2-c2cc(C)no2)cc1 (stereo not drawn) : 35

Lookup: Given the entry CS(=O)(=O)NCc1cnc2n1CCN(Cc1ccsc1)CC2 , report its measured cytotoxicity at 10 µM.
Found: -7.96

Lookup: Entry CC(Cc1ccc2c(c1)OCO2)c1cn(CCN2CCCC2)nn1 (stereo not drawn) has what cytotoxicity at 10 µM?
Found: 7.09

Lookup: May I ask what cytotoxicity at 10 µM has been recorded for c1csc(CCC2CCCCN2Cc2noc(C3CC3)n2)c1 (stereo not drawn) ?
Found: 0.562

###

# EXPERIMENTAL_DETAILS: Toxicity liver stage against HepG2, at 10uM
# Type: cell-based
# Set-up: test concentration 10 uM, cell line HepG2-A16-CD81EGFP
# COND: human, HepG2-A16-CD81EGFP cells; read-out: INHIBITION
EXPERIMENTAL_ENDPOINT: cytotoxicity at 10 µM (%)
Record the value in %, omitting the unit from your answer.

C[S+]([O-])c1nncn1CCCc1ccc(Cl)cc1 (stereo not drawn) : -8.64

Lookup: State the recorded cytotoxicity at 10 µM for this entry: Cn1cc(N2CCN(c3ccc(C#N)c(Cl)c3)CC2=O)cn1
Found: -3.81

Lookup: Please give the measured cytotoxicity at 10 µM for this compound: COc1ccccc1[C@@H]1CN(CC(=O)N2CCCCC2)C[C@H]1C(=O)O
Found: -2.82

Lookup: Param item = CC(C)c1nc(C2CCCN2Cc2nccn2CC(F)(F)F)no1 (stereo not drawn) ; retrieve measured cytotoxicity at 10 µM.
Found: -18.9

Lookup: # input compound: O=C(c1cnccn1)N1CCC2(CC1)CC(Oc1ccccc1)CO2 (stereo not drawn) ; wanted: its cytotoxicity at 10 µM
Found: 2.74

Lookup: What measured cytotoxicity at 10 µM goes with COc1cccc(Cn2ncc(N(C)CCc3ccccc3)cc2=O)c1 ?
Found: 2.93

Lookup: Look at this compound and give its reported cytotoxicity at 10 µM. CC(C)Nc1ncnc2c1CCN(c1cc(C(F)(F)F)ncn1)CC2
Found: 6.07
